molecular target: Mitogen-activated protein kinase 10 (Homo sapiens, UniProt P53779); assay: Inhibition of recombinant full length human JNK3 using peptide substrate after 40 mins by [gamma-33ATP] by radiometric scintillation counting analysis
Sequence (P53779 whole entry): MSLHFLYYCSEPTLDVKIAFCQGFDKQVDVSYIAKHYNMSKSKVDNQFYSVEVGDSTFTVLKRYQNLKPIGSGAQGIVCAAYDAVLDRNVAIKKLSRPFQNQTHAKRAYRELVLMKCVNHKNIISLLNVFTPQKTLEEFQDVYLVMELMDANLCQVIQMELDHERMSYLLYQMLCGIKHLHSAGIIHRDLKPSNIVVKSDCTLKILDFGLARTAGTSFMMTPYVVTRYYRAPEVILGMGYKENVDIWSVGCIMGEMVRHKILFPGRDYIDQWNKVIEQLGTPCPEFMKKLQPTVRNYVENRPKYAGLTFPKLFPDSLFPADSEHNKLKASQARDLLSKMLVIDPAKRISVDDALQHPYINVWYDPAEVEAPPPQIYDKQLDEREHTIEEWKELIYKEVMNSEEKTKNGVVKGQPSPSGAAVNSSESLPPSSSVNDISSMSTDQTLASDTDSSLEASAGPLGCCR
pIC50: −log10 of the molar value.
measure: pIC50

Query: Any idea what its pIC50 is? The molecule is `CN(C)c1ccc(C(=O)Nc2cccc(NC(=O)COc3ccc4c(=O)ccoc4c3)c2)cc1`
Reply: < 5.00

====

biological target: MAP kinase-interacting serine/threonine-protein kinase 2 (Homo sapiens, UniProt Q9HBH9); assay: Inhibition of recombinant full length human MNK2 using myelin basic protein as substrate incubated for 40 mins in presence of [gamma-33ATP by radiometric scintillation counting analysis
Sequence (Q9HBH9 whole entry): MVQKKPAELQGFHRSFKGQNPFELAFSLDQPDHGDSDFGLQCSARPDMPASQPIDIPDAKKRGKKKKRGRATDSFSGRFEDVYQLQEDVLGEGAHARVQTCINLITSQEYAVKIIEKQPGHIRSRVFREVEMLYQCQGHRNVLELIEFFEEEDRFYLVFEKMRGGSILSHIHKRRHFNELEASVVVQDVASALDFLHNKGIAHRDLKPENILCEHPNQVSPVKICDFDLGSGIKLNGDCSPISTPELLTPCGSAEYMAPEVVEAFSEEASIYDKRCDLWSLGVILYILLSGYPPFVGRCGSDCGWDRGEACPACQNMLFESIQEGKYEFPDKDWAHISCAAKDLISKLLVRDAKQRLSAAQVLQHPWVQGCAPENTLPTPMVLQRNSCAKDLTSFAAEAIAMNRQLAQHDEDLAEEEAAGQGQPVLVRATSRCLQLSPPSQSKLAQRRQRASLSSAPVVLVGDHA
measure: IC50

Query: Data request, read-out IC50, for `CN(C)c1ccc(C(=O)Nc2cccc(NC(=O)COc3ccc4c(=O)ccoc4c3)c2)cc1`
Reply: > 10 µM

====

molecular target: Serine/threonine-protein kinase 32C (Homo sapiens, UniProt Q86UX6); experiment: Inhibition of recombinant human full length STK32C using casein as substrate incubated for 120 mins in presence of [gamma33P]ATP by radiometric scintillation counting analysis
Sequence (Q86UX6 whole entry): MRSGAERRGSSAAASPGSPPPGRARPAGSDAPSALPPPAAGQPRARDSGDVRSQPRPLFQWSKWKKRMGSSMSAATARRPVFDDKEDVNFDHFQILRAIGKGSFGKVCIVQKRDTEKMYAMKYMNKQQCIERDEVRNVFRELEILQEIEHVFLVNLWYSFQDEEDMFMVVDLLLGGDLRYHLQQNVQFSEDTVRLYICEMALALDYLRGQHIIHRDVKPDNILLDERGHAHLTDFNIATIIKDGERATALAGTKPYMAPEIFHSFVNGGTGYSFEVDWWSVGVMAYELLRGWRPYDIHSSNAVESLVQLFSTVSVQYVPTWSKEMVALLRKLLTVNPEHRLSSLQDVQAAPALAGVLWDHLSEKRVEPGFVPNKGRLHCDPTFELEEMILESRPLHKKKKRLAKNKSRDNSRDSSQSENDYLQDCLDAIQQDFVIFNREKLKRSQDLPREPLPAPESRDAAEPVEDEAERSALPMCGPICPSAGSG
pIC50: −log10 of the molar value.
measure: pIC50

Query: GET /values?readout=pIC50&system=Serine/threonine-protein kinase 32C (Homo sapiens, UniProt Q86UX6)&item= `CN(C)c1ccc(C(=O)Nc2cccc(NC(=O)COc3ccc4c(=O)ccoc4c3)c2)cc1`
Reply: < 5.00

====

biological target: Serine/threonine-protein kinase tousled-like 2 (Homo sapiens, UniProt Q86UE8); test: Inhibition of recombinant human TLK2 (387 to end residues) using casein as substrate incubated for 40 mins in presence of [gamma33P]ATP by radiometric scintillation counting analysis
Sequence (Q86UE8 whole entry): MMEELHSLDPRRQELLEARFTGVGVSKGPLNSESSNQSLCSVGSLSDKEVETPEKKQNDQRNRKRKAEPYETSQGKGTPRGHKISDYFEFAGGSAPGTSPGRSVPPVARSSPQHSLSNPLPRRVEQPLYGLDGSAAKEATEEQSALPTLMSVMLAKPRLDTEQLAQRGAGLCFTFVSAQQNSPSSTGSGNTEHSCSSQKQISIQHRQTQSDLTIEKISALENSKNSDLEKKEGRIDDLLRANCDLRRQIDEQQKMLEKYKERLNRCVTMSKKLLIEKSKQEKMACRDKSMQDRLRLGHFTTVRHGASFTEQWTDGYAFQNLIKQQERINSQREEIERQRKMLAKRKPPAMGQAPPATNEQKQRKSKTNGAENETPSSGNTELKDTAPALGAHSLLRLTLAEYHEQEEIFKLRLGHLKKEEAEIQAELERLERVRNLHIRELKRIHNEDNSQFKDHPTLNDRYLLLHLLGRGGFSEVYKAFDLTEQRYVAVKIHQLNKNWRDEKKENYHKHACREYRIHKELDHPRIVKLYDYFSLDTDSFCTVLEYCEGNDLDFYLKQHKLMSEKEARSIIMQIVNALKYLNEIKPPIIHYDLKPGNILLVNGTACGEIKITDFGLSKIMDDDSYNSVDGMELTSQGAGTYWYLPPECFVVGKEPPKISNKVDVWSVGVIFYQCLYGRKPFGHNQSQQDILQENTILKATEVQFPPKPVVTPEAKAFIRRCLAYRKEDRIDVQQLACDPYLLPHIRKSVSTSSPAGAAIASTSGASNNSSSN
pIC50: −log10 of the molar value.
measure: pIC50

Query: If you can, please state the reported pIC50 value of `CN(C)c1ccc(C(=O)Nc2cccc(NC(=O)COc3ccc4c(=O)ccoc4c3)c2)cc1` .
Reply: < 5.00

====

target: Serine/threonine-protein kinase PLK1 (Homo sapiens, UniProt P53350); assay: Inhibition of recombinant full-length human Plk1 using casein as substrate incubated for 40 mins in presence of [gamma33P]ATP by radiometric scintillation counting analysis
Sequence (P53350 whole entry): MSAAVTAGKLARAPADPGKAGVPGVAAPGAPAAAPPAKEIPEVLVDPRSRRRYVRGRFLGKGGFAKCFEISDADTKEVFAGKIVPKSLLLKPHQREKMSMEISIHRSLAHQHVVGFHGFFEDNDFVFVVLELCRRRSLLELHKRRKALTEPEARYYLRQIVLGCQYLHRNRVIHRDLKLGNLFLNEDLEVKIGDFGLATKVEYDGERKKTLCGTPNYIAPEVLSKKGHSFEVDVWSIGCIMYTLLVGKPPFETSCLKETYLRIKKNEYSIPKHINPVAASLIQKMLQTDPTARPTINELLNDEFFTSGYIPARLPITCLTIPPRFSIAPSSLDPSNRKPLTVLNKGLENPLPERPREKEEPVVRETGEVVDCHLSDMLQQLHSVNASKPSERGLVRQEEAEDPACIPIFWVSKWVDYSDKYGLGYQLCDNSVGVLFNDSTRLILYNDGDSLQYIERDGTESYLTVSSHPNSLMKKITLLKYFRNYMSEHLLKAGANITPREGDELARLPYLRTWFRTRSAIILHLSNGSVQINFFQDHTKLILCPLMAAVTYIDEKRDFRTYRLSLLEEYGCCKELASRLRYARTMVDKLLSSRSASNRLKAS
pIC50: −log10 of the molar value.
measure: pIC50

Query: Entry under review: `CN(C)c1ccc(C(=O)Nc2cccc(NC(=O)COc3ccc4c(=O)ccoc4c3)c2)cc1` . Reported pIC50?
Reply: < 5.00

====

target: Wee1-like protein kinase 2 (Homo sapiens); assay: Inhibition of recombinant full length human WEE1b using LSNLYHQGKFLQTFCGSPLYRRR as substrate incubated for 120 mins in presence of [gamma33P]ATP by radiometric scintillation counting analysis
Sequence (P0C1S8 whole entry): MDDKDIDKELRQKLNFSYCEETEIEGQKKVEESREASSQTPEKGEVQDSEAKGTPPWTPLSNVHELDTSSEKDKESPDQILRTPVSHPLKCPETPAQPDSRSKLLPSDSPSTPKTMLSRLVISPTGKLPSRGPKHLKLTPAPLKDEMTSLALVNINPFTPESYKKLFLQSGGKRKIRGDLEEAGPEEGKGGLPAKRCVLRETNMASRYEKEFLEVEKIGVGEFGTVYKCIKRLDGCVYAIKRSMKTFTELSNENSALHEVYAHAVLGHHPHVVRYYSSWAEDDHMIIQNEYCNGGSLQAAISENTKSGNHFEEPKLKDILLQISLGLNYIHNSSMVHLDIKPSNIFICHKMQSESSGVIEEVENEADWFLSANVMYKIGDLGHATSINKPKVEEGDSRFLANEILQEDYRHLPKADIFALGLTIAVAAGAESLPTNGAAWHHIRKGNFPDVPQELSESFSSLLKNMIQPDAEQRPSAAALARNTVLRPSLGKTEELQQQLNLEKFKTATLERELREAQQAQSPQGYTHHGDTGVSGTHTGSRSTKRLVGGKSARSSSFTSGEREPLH
measure: IC50

Query: Would you kindly share the measured IC50 for `CN(C)c1ccc(C(=O)Nc2cccc(NC(=O)COc3ccc4c(=O)ccoc4c3)c2)cc1` ?
Reply: > 10 µM

====

target: UniProtKB P54760; assay: Inhibition of recombinant human EphB4 (561 to end residues) using poly(Glu, Tyr) 4:1 as substrate after 40 mins in presence of [gamma-33ATP] by radiometric scintillation counting analysis
Sequence (P54760 whole entry): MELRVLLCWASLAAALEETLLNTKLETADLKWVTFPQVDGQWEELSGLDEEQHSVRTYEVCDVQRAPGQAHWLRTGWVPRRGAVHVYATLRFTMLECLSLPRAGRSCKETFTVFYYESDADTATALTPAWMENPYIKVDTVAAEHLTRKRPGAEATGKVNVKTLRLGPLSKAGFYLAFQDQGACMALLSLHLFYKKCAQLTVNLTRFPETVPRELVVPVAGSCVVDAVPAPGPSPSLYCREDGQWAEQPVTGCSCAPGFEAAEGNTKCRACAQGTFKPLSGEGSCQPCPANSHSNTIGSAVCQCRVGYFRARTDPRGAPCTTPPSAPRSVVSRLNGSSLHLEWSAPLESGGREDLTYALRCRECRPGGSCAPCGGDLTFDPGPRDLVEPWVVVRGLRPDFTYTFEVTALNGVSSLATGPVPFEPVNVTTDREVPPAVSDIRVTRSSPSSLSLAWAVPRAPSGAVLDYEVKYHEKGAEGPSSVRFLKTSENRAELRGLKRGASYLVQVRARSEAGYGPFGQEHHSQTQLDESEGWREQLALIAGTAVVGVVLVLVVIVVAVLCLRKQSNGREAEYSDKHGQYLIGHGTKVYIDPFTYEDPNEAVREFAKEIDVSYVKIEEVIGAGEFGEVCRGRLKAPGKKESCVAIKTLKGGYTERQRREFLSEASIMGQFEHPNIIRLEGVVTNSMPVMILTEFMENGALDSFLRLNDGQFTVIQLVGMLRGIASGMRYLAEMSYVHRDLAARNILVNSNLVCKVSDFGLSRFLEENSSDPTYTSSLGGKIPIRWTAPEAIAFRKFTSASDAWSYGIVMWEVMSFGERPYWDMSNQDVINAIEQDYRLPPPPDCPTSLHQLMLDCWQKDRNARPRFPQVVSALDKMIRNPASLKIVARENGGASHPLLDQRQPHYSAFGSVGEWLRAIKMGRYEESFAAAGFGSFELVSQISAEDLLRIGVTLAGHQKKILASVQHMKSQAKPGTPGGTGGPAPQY
measure: IC50

Query: If you can, please state the reported IC50 value of `CN(C)c1ccc(C(=O)Nc2cccc(NC(=O)COc3ccc4c(=O)ccoc4c3)c2)cc1` .
Reply: > 10 µM

====

Target: Serine/threonine-protein kinase 17A (Homo sapiens, UniProt Q9UEE5)
Sequence (Q9UEE5 whole entry): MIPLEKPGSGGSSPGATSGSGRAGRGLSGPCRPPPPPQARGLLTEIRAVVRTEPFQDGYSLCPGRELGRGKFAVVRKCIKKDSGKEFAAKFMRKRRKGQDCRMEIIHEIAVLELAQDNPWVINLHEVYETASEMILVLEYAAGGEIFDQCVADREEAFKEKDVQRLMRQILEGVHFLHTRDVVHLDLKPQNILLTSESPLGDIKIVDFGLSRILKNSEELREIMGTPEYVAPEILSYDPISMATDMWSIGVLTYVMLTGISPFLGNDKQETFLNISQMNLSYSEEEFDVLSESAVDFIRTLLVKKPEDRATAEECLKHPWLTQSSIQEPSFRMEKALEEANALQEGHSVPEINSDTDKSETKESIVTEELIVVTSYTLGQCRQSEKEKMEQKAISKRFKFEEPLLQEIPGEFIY
Experiment: Inhibition of recombinant full length human DRAK1 using KKLNRTLSFAEPG as substrate after 40 mins in presence of [gamma-33ATP] by radiometric scintillation counting analysis
measure: IC50

Query: Reported IC50, compound `CN(C)c1ccc(C(=O)Nc2cccc(NC(=O)COc3ccc4c(=O)ccoc4c3)c2)cc1` : ____
Reply: > 10 µM
